Record form. Attribute: mortality at 50 ug/ml. Fill in for each entry.
Experiment: Toxicity in wild type zebrafish embryos assessed as dead embryo at 50 ug/ml treated for 96 hrs post fertilization starting from 6 hrs post fertilization by inverted microscopic analysis relative to control
Format: organism-based, Danio rerio
Conditions: in vivo, read-out: Activity

Reference set, count: 2
# compound, mortality at 50 ug/ml
records = [
    ("O=c1cc(-c2ccccc2)c2ccc(O)cc2o1", "0%"),
    ("O=c1cc(-c2ccccc2)c2c(O)cc(O)cc2o1", "0%"),
]

Attention now shifts to the item below.
Query (compound): Oc1ccc(O)cc1 [HYDROQUINONE] ; field requested: mortality at 50 ug/ml
100%

###

Species: Danio rerio
Assay: Toxicity in wild type zebrafish embryos assessed as blood circulation at 25 ug/ml treated for 96 hrs post fertilization starting from 6 hrs post fertilization by inverted microscopic analysis relative to control
Type: organism-based
Conditions: in vivo
Record form. Attribute: Activity. Fill in for each entry.
Answers are plain numbers, in %.

Reference set, count: 3
# compound, readoutValue
rows = [
    ("O=c1cc(-c2ccccc2)c2ccc(O)cc2o1", 0),
    ("Oc1ccc(O)cc1 [HYDROQUINONE]", 100),
    ("O=c1cc(-c2ccccc2)c2c(O)cc(O)cc2o1", 0),
]

Attention now shifts to the item below.
Query (compound): `O=c1cc(CO)occ1O` ; field requested: Activity
0

###

Record form. Attribute: Activity. Fill in for each entry.
Organism: Danio rerio
Assay: Toxicity in wild type zebrafish embryos assessed as normal embryo at 25 ug/ml treated for 96 hrs post fertilization starting from 6 hrs post fertilization by inverted microscopic analysis relative to control
Assay type: organism-based
Settings: in vivo
Answers are plain numbers, in %.

Reference set, count: 3
# molecule, quantityMeasured, readoutValue
data = [
    ("O=c1cc(CO)occ1O", "Activity", 100),
    ("O=c1cc(-c2ccccc2)c2c(O)cc(O)cc2o1", "Activity", 100),
    ("O=c1cc(-c2ccccc2)c2ccc(O)cc2o1", "Activity", 100),
]

Attention now shifts to the item below.
Query (molecule): Oc1ccc(O)cc1 [HYDROQUINONE] ; field requested: Activity
0

###

Experiment: Toxicity in wild type zebrafish embryos assessed as dead embryo at 500 ug/ml treated for 96 hrs post fertilization starting from 6 hrs post fertilization by inverted microscopic analysis relative to control
Type: organism-based, Danio rerio
Conditions: in vivo, read-out: Activity
quantityMeasured: mortality at 500 ug/ml (%)
Numbers only, in %.

Query (compound): `O=c1cc(CO)occ1O` ; field requested: mortality at 500 ug/ml
0

###

Experiment: Toxicity in wild type zebrafish embryos assessed as dead embryo at 2000 ug/ml treated for 96 hrs post fertilization starting from 6 hrs post fertilization by inverted microscopic analysis relative to control
Format: organism-based, Danio rerio
Conditions: in vivo, read-out: Activity
quantityMeasured: mortality at 2000 ug/ml (%)
Answers are plain numbers, in %.

Query (compound): `O=c1cc(CO)occ1O` ; field requested: mortality at 2000 ug/ml
0

###

Tested on: Danio rerio
Test: Toxicity in wild type zebrafish embryos assessed as pericardial edema at 25 ug/ml treated for 96 hrs post fertilization starting from 6 hrs post fertilization by inverted microscopic analysis relative to control
Format: organism-based
Details: in vivo
quantityMeasured: Activity (%)
Give bare numbers, in %.

# compound, unitsSymbol, Activity
measured = [
    ("O=c1cc(CO)occ1O [KOJIC ACID]", "%", 0),
    ("O=c1cc(-c2ccccc2)c2c(O)cc(O)cc2o1", "%", 0),
    ("O=c1cc(-c2ccccc2)c2ccc(O)cc2o1", "%", 0),
]

Query (compound): Oc1ccc(O)cc1 [HYDROQUINONE] ; field requested: Activity
100

###

Species on record: Danio rerio
Assay: Toxicity in wild type zebrafish embryos assessed as otoliths at 25 ug/ml treated for 96 hrs post fertilization starting from 6 hrs post fertilization by inverted microscopic analysis relative to control
Type: organism-based
Settings: in vivo
quantityMeasured: Activity (%)
Answers are plain numbers, in %.

Each compound below has a reported value. Please supply its Activity.
1. Oc1ccc(O)cc1 [HYDROQUINONE]
2. O=c1cc(CO)occ1O
3. O=c1cc(-c2ccccc2)c2ccc(O)cc2o1
4. O=c1cc(-c2ccccc2)c2c(O)cc(O)cc2o1

1. 100
2. 0
3. 0
4. 0

###

Biological target: Tyrosinase (Danio rerio, UniProt A0A8M1PAD4)
Sequence (A0A8M1PAD4 whole entry): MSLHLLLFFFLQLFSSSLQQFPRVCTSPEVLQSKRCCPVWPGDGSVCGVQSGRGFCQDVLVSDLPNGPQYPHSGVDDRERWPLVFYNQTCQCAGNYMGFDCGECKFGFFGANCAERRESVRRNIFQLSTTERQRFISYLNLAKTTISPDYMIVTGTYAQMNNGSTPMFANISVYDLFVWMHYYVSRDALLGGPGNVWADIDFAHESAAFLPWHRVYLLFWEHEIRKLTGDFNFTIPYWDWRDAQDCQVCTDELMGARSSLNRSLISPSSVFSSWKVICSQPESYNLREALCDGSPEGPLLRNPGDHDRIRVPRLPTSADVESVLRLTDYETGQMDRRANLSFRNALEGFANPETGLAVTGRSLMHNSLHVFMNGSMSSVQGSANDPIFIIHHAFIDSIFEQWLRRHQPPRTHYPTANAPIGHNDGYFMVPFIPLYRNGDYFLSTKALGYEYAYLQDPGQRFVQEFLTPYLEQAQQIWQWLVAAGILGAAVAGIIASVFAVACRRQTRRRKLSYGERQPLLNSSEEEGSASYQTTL
Experiment: Inhibition of zebrafish embryo tyrosinase assessed as residual activity after 48 hrs
quantityMeasured: IC50 (µM)
Numbers only, in µM.

Each compound below has a reported value. Please supply its IC50.
1. O=c1cc(-c2ccccc2)c2ccc(O)cc2o1
2. O=c1cc(-c2ccccc2)c2c(O)cc(O)cc2o1

205
90.9

###

Species on record: Danio rerio
Test: Toxicity in wild type zebrafish embryos assessed as growth retardation at 25 ug/ml treated for 96 hrs post fertilization starting from 6 hrs post fertilization by inverted microscopic analysis relative to control
Type: organism-based
Conditions: in vivo
quantityMeasured: Activity (%)
Answers are plain numbers, in %.

Each compound below has a reported value. Please supply its Activity.
1. O=c1cc(-c2ccccc2)c2c(O)cc(O)cc2o1
2. O=c1cc(-c2ccccc2)c2ccc(O)cc2o1
3. O=c1cc(CO)occ1O [KOJIC ACID]
4. Oc1ccc(O)cc1 [HYDROQUINONE]

0
0
0
100

###

Test: Toxicity in wild type zebrafish embryos assessed as dead embryo at 25 ug/ml treated for 96 hrs post fertilization starting from 6 hrs post fertilization by inverted microscopic analysis relative to control
Format: organism-based, Danio rerio
Conditions: in vivo, read-out: Activity
Record form. Attribute: mortality at 25 ug/ml. Fill in for each entry.
Give bare numbers, in %.

Reference set, count: 2
# compound, mortality at 25 ug/ml / %
data = [
    ("O=c1cc(CO)occ1O [KOJIC ACID]", 0),
    ("O=c1cc(-c2ccccc2)c2ccc(O)cc2o1", 0),
]

Each compound below has a reported value. Please supply its mortality at 25 ug/ml.
1. Oc1ccc(O)cc1 [HYDROQUINONE]
2. O=c1cc(-c2ccccc2)c2c(O)cc(O)cc2o1

[93.3, 0]

###

Record form. Attribute: Activity. Fill in for each entry.
Species: Danio rerio
Experiment: Toxicity in wild type zebrafish embryos assessed as unhatched embryo at 25 ug/ml treated for 96 hrs post fertilization starting from 6 hrs post fertilization by inverted microscopic analysis relative to control
Type: organism-based
Conditions: in vivo
Answers are plain numbers, in %.

# compound, readoutValue
records = [
    ("O=c1cc(-c2ccccc2)c2c(O)cc(O)cc2o1", 0),
]

Each compound below has a reported value. Please supply its Activity.
1. O=c1cc(CO)occ1O
2. O=c1cc(-c2ccccc2)c2ccc(O)cc2o1

1: 0; 2: 0

Query (compound): Oc1ccc(O)cc1 [HYDROQUINONE] ; field requested: Activity
100

###

Tested on: Danio rerio
Assay: Toxicity in wild type zebrafish embryos assessed as yolk edema at 25 ug/ml treated for 96 hrs post fertilization starting from 6 hrs post fertilization by inverted microscopic analysis relative to control
Format: organism-based
Conditions: in vivo
quantityMeasured: Activity (%)
Numbers only, in %.

# compound, unitsSymbol, readoutValue
rows = [
    ("O=c1cc(-c2ccccc2)c2c(O)cc(O)cc2o1", "%", 0),
    ("Oc1ccc(O)cc1 [HYDROQUINONE]", "%", 100),
    ("O=c1cc(-c2ccccc2)c2ccc(O)cc2o1", "%", 0),
]

Attention now shifts to the item below.
Query (compound): O=c1cc(CO)occ1O [KOJIC ACID] ; field requested: Activity
0

###

Record form. Attribute: Activity. Fill in for each entry.
Organism: Danio rerio
Experiment: Toxicity in wild type zebrafish embryos assessed as teratogenic embryo at 25 ug/ml treated for 96 hrs post fertilization starting from 6 hrs post fertilization by inverted microscopic analysis relative to control
Format: organism-based
Settings: in vivo
Returns: string containing the numeric result and its unit.

Reference set, count: 3
# compound, Activity
measured = [
    ("O=c1cc(-c2ccccc2)c2ccc(O)cc2o1", "0%"),
    ("O=c1cc(CO)occ1O", "0%"),
    ("O=c1cc(-c2ccccc2)c2c(O)cc(O)cc2o1", "0%"),
]

Query (compound): Oc1ccc(O)cc1 [HYDROQUINONE] ; field requested: Activity
6.7%
